- experimentalDetails: ACEA_AR_antagonist_AUC_viability: ACEA Biosciences xCELLigence Real-Time Cell Analysis on Androgen Receptor Antagonism for Viability (AID 2283776);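 further: 22Rv1 human prostate cancer cells growing on impedance electrode plates; area under impedance growth curve at 80 h after dosing as viability; hits lower the growth signal relative to DMSO meaning cytotoxicity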
Records with an inconclusive call do not appear. Calls of active or inactive are those of the source. How the source made its calls: active means hit-call score of the fitted dose curve at least 0.9, where 1 is the maximum; inconclusive means response in the unintended direction; inactive means score below 0.9.
// one of 1 = active, 0 = inactive, no free text

Solved entries (count: 4):
Write down the call the test reported for this compound. Item: CCOP(=S)(OCC)SCCSCC 1

What outcome does the record of this test show for CNC(=O)Oc1cccc2c1OC(C)(C)O2 ? 0

In this assay, the call recorded for Cc1nn(-c2cc(NS(C)(=O)=O)c(Cl)cc2Cl)c(=O)n1C(F)F was what? 0

Could you check what this test reported for CC1(C(=O)Nc2ccc(O)c(Cl)c2Cl)CCCCC1 ? 1

Turning now to a further compound:
Call for entry C=C(C)[C@H]1Cc2c(ccc3c2O[C@@H]2COc4cc(OC)c(OC)cc4[C@@H]2C3=O)O1 : 1

---

- experimentalDetails: TOX21_p53_BLA_p2_viability: Viability Assessment in the Tox21 HCT-116 p53 Agonism Beta-lactamase Assay, Phase 2 (AID 2283591);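 further: compound exposure lasted 16 h at 37 °C; actives lower the ATP signal meaning cytotoxicity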
- From the text: TOX21_p53_BLA_p2 is a cell-based, single-readout assay that uses HCT116, a human intestinal cell line, […] in a 1536-well plate.TOX21_p53_BLA_p2_viability is an assay readout measuring cellular ATP content and detected with CellTiter-Glo Luciferase-coupled ATP quantitation.TOX21_p53_BLA_p2_viability used a type of viability reporter where loss-of-signal activity can be used to understand changes in the cell viability. […]
Records with an inconclusive call do not appear. Activity calls are given as the source filed them. Rule for the calls: active = hit-call score of the fitted dose curve at least 0.9, where 1 is the maximum; inconclusive = response in the unintended direction; inactive = score below 0.9.
Your response should consist of one outcome taken from t (active), f (inactive)

Reference set (5 entries):
Dear colleague, could you share the recorded outcome for CC(COc1ccc(Oc2ccccc2)cc1)Oc1ccccn1 (stereo not given) when you have a moment? f

Identify the outcome logged in this assay for the molecule shown: O=c1ccc(=O)[nH][nH]1 f

Outcome logged for COP(=O)(NC(C)=O)SC (stereo not given) in this assay: f

Entry CCOP(=S)(OCC)Oc1cc(C)nc(C(C)C)n1 : call = ? f

Can you look up the reported call for CC1(C(=O)Nc2ccc(O)c(Cl)c2Cl)CCCCC1 for me? f

Next:
What classification did CCCCSP(=O)(SCCCC)SCCCC end up with in this test? f

---

- experimentalSystem: rat CYP2A2, Cyp2a2 (gene 24895) (UniProt P15149)
- Sequence (P15149 whole entry, looked up): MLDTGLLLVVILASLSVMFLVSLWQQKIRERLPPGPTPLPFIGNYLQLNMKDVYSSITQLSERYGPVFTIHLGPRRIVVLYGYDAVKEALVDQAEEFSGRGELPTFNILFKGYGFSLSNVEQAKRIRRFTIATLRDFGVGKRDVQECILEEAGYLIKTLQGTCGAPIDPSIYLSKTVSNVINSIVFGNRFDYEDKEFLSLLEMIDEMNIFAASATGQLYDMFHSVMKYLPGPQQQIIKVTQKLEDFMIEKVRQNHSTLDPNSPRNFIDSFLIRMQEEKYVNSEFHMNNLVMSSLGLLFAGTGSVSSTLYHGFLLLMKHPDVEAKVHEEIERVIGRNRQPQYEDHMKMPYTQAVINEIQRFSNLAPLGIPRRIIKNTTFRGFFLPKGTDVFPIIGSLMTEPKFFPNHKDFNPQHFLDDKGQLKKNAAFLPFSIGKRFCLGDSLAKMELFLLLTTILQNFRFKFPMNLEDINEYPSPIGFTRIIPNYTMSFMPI
- experimentalDetails: NVS_ADME_rCYP2A2: NovaScreen (NVS) CYP450-related Enzyme Activity (ADME) Assay for rat CYP2A2 (AID 2283116)
Calls of active or inactive are those of the source. Rule for the calls: active = hit-call score of the fitted dose curve at least 0.9, where 1 is the maximum; inconclusive = response in the unintended direction; inactive = score below 0.9.
Select the matching outcome among active, inactive

Consider the following illustrative entries.
Please let me know the test result on file for CCC(=NOC/C=C/Cl)C1=C(O)CC(C2CCOCC2)CC1=O (stereo unspecified) . inactive

Given C[Si](Cn1cncn1)(c1ccc(F)cc1)c1ccc(F)cc1 , state the outcome it received in this test. active

Assay outcome for CC(C)N(C(=O)SCC(Cl)=C(Cl)Cl)C(C)C : what was it? inactive

For this compound, state the assay outcome: CC[C@H](C)[C@H]1O[C@]2(C=C[C@@H]1C)C[C@@H]1C[C@@H](C/C=C(\C)[C@@H](O[C@H]3C[C@H](OC)[C@@H](O[C@H]4C[C@H](OC)[C@@H](NC)[C@H](C)O4)[C@H](C)O3)[C@@H](C)/C=C/C=C3\CO[C@@H]4[C@H](O)C(C)=C[C@@H](C(=O)O1)[C@]34O)O2 active

Others:
Lab log entry: Nc1c(Cl)cc([N+](=O)[O-])cc1Cl — outcome as called in the assay? active

Which result was noted for this compound in the test: C#CCC1=C(C)C(OC(=O)C2C(C=C(C)C)C2(C)C)CC1=O (stereo unspecified) active
